# system: rat GPR14 (U-II receptor) (Rattus norvegicus, UniProt P49684)
# Construct: expressed in transfected cells
# Sequence (P49684 whole entry): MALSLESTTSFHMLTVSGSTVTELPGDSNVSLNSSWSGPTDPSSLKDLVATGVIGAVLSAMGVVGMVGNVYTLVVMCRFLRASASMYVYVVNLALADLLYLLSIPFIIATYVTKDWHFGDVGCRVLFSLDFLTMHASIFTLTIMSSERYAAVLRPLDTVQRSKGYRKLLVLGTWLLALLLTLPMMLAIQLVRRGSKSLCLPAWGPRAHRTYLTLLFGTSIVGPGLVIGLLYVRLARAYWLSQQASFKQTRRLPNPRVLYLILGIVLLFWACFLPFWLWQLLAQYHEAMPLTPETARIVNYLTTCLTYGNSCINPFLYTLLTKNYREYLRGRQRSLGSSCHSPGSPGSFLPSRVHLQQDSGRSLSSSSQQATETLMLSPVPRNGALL
# assay-explanation: Rat UII Calcium Mobilization FLIPR Assay
# Assay type: cell-based
# measurement-parameters: CHO, 5 min, 10 μM compound; agonist-induced Ca2+ mobilization (FLIPR), CHO cells with rat UII receptor; read-out: % I @ 10
# Description: To derive these cells, the complete coding sequence of rat U-II (Genbank Accession No. U32673) was amplified by nested PCR from rat heart marathon-Ready cDNA. […] The PCR products were cloned into pcDNA3 (Invitrogen) digested with EcoR I and Xba I. Clones containing rat U-II receptor were verified by complete sequencing of the U-II receptor insert to ensure a lack of PCR-introduced errors. The constructed vector was transfected into CHO cells by using lipofectamine (GIBCO BRL). […]
observation-type: inhibition at 10 µM (%)

{"compound": "COc1ccc(C(CCCNS(=O)(=O)c2cccs2)N2C(=O)c3cccc(N4CCN([C@H](C)c5ccccc5)CC4)c3C2=O)cc1OC (stereo partly shown)", "observation-type": "inhibition at 10 µM", "assay-result": 98}
{"compound": "COc1ccc(CN2C(=O)c3cccc(N4CCN(Cc5ccc(F)cc5F)CC4)c3C2=O)cc1OC", "observation-type": "inhibition at 10 µM", "assay-result": 96}
{"compound": "CCC(c1ccc(OC)c(OC)c1)N1C(=O)c2cccc(N3CCN([C@H](C)c4ccccc4)CC3)c2C1=O (stereo partly shown)", "observation-type": "inhibition at 10 µM", "assay-result": 100}
{"compound": "COc1ccc(CN2C(=O)c3cccc(N[C@@H]4CCCC[C@H]4NCc4ccccc4)c3C2=O)cc1OC", "observation-type": "inhibition at 10 µM", "assay-result": 62}
{"compound": "COc1ccc(CN2C(=O)c3cccc(N4CCN(Cc5cccc(Cl)c5)CC4)c3C2=O)cc1OC", "observation-type": "inhibition at 10 µM", "assay-result": 42}
{"compound": "COc1ccc(CN2CCN(c3cccc4c3C(=O)N(Cc3ccc(OC)c(OC)c3)C4=O)CC2)cc1OC", "observation-type": "inhibition at 10 µM", "assay-result": 21}
{"compound": "COc1ccc([C@H](C)N2C(=O)c3cccc(N4CCN([C@H](C)c5ccccc5)CC4)c3C2=O)cc1OC", "observation-type": "inhibition at 10 µM", "assay-result": 100}
